Provenance of the data: ChEMBL document CHEMBL1133336

target: Plasminogen (Homo sapiens, UniProt P00747)
Sequence (P00747 97-580 limits assumed): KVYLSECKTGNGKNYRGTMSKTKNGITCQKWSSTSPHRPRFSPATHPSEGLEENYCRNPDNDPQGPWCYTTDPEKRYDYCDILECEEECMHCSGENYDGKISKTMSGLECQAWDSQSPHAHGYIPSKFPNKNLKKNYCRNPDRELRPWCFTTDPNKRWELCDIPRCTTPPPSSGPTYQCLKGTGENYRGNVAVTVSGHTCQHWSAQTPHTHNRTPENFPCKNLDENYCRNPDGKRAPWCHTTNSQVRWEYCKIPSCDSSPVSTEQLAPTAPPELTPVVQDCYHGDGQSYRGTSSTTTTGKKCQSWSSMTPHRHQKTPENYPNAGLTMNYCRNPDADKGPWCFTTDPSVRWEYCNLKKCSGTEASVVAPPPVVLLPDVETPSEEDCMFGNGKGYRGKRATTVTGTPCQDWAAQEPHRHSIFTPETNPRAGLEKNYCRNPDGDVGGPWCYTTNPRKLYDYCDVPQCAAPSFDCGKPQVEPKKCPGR
Sequence (P00747 581-810 limits assumed): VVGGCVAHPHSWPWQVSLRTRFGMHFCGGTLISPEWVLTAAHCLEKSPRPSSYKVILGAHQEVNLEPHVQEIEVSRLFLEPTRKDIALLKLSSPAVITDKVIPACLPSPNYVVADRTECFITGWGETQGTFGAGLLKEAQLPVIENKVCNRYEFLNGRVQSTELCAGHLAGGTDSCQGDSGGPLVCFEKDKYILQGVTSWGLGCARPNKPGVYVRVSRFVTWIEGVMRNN
pIC50: −log10 of the molar value.

{"MOLECULE": "N=C(N)N1CCC[C@H](NC(=O)C2CC3CCC(O)CC3N2C(=O)[C@@H](Cc2ccc(O)cc2)NC(=O)[C@H](O)Cc2ccc(OS(=O)(=O)O)cc2)C1O (stereo partly specified)", "pIC50": 6.39}
